- target system: Trm11–Trm112 complex (Saccharomyces cerevisiae, UniProt Q12463, D291A)
- Sequence (Q12463 whole entry D291A): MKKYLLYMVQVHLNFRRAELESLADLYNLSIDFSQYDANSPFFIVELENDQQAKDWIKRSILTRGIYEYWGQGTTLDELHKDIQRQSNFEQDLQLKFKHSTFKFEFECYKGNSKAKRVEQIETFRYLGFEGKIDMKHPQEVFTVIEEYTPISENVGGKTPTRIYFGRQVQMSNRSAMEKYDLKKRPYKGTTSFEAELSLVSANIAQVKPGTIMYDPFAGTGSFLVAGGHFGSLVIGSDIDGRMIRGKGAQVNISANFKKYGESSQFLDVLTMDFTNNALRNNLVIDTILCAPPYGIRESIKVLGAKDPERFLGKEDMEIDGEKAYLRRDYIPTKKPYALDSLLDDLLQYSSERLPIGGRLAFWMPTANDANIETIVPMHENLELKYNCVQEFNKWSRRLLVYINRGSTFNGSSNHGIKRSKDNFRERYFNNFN
- Sequence (P53738 whole entry partner): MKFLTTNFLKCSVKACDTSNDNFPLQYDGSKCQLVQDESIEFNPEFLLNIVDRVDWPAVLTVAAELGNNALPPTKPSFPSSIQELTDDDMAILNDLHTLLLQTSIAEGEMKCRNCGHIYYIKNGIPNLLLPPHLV
- assay: biochemical

molecule: C[S+](CC[C@H](N)C(=O)O)C[C@H]1O[C@@H](n2cnc3c(N)ncnc32)[C@H](O)[C@@H]1O (stereo partly shown)
Kd: 3.4 µM
